- Protocol Summary: Solubility of solid organic sunscreens in solubilizers (25° C.)
- Assay type: physicochemical
- Setup Conditions: solute Bis-ethylhexyloxyphenol methoxyphenyl triazine (BEMT)
Could you label it true if measured Solubility of BEMT in the solvent is 20 wt. % or higher, and false otherwise?

Use the examples below as a reference point.
1) CCCC(=O)OCc1ccccc1 [benzyl butyrate]
true
2) CCC(=O)OC(C)c1ccccc1 (stereo not shown) [1-phenylethyl propionate]
true
3) CCCCCCCCOC(=O)OCCCCCCCC [dioctyl carbonate, reference compound]
false
4) CC(O)C(=O)OCc1ccccc1 (stereo not shown) [benzyl lactate]
false
5) CC(C)(C)C(=O)OCCc1ccccc1 [2-phenylethyl neopentanoate]
true

Task: Reported Solubility of BEMT in the solvent at or above 20 wt. %? CCCCCCCCOC(=O)OCc1ccccc1 [benzyl octyl carbonate]
Output: false

Task: Would you say CCCCC(=O)OCCc1ccccc1 [2-phenylethyl pentanoate, 2-Phenylethyl Pentanoate] shows Solubility of BEMT in the solvent at minimum 20 wt. %?
Output: true

Task: Determine whether this compound has Solubility of BEMT in the solvent no lower than 20 wt. %: CCCCCCCC(=O)OCCc1ccccc1 [2-phenylethyl octanoate]
Output: true

Task: Item CCC(=O)OCCOc1ccccc1 [2-phenoxyethyl propionate] with Solubility of BEMT in the solvent of 20 wt. % or above?
Output: false

Task: Check if Solubility of BEMT in the solvent >= 20 wt. % (inclusive). Item: CC(C)CCCCCCCOC(=O)C(C)(C)C [isodecyl neopentanoate, reference compound]
Output: false
